# experimental target: EGFR on the surface of human tumour cells (A431, H292) (human, UniProt P00533 25-1210)
# procedure summary: cell-based or functional assay
assay readout: % inhibition of EGFR phosphorylation at 100 nM binder, cell-based assay (%)

# binder, unit symbol, quantitative readout
data = [
    ("E1 EGFR 10Fn3-based binder, His-tagged monomer (designed binder) MGVSDVPRDLEVVAATPTSLLISWVAGAEDYQYYRITYGETGGNSPVQEFTVPHDLVTATISGLKPGVDYTITVYAVTDMMHVEYTEHPISINYRTEIDKPSQHHHHHH", "%", 85.9),
    ("E17 (designed binder) 10Fn3 domain: MGVSDVPRDLEVVAATPTSLLISWQVPRPMYQYYRITYGETGGNSPVQEFTVPGMVHTATISGLKPGVDYTITVYAVTDHKPHADGPHTYHESPISINYRTEIDKPSQ", "%", 75.5),
    ("E11 (designed binder) 10Fn3 domain: MGVSDVPRDLEVVAATPTSLLISWTPANKSYQYYRITYGETGGNSPVQEFTVPYDGTTATISGLKPGVDYTITVYAVTDHKPHADGPHTYHEYPISINYRTEIDKPSQ", "%", 83.7),
    ("E10 (designed binder) 10Fn3 domain: MGVSDVPRDLEVVAATPTSLLISWYPGSRTYQYYRITYGETGGNSPVQEFTVPGGVRTATISGLKPGVDYTITVYAVTDYYHPATYEHEYHAHPISINYRTEIDKPSQ", "%", 84.7),
    ("E7 (designed binder) 10Fn3 domain: MGVSDVPRDLEVVAATPTSLLISWQVPRPMYQYYRITYGETGGNSPVQEFTVPYDVHTATISGLKPGVDYTITVYAVTDSYNPATHEYKYHQTPISINYRTEIDKPSQ", "%", 89.4),
    ("E15 (designed binder) 10Fn3 domain: MGVSDVPRDLEVVAATPTSLLISWQVPRPMYQYYRITYGETGGNSPVQEFTVPHDLRTATISGLKPGVDYTITVYAVTDSYNPATHEYKYHQTPISINYRTEIDKPSQ", "%", 88.8),
    ("E16 (designed binder) 10Fn3 domain: MGVSDVPRDLEVVAATPTSLLISWQVPRPMYQYYRITYGETGGNSPVQEFTVPYDLVTATISGLKPGVDYTITVYAVTDHKPHADGPHTYHESPISINYRTEIDKPSQ", "%", 97.7),
    ("E14 (designed binder) 10Fn3 domain: MGVSDVPRDLEVVAATPTSLLISWQVPRPMYQYYRITYGETGGNSPVQEFTVPYDVTTATISGLKPGVDYTITVYAVTDSYNPATHEYKYHQTPISINYRTEIDKPSQ", "%", 80.4),
]
